- Test system: MT2
- test-name: Concentration required to inhibit 50% of HIV activity in MT-2 cells
- Assay type: functional
- test-context: Homo sapiens, read-out: ED50 (the source's name)
Here, each record is paired with measured EC50 data.
Quick note: give the figure in nM, leave out the unit.

Query: Determine its reported EC50: Nc1nc(=O)n([C@@H]2CS[C@H](CO)O2)cc1F [EMTRICITABINE]
Response: 2000

Query: Determine its reported EC50: `Nc1ccn([C@@H]2CC[C@H](CO)O2)c(=O)n1`
Response: 1500

Query: Determine its reported EC50: `Nc1ccn([C@H]2C=C[C@@H](CO)O2)c(=O)n1`
Response: 1000

Query: Determine its reported EC50: `Nc1ccn([C@@H]2C=C[C@H](CO)O2)c(=O)n1`
Response: 700

Query: Determine its reported EC50: Nc1nc(=O)n([C@@H]2C=C[C@H](CO)O2)cc1F [ELVUCITABINE]
Response: 90

Query: Determine its reported EC50: `Nc1nc(=O)n([C@@H]2CC[C@H](CO)O2)cc1F`
Response: 500
